- Subject of test: human neutrophil elastase (HNE) (Homo sapiens)
- Sequence (P08246 30-267): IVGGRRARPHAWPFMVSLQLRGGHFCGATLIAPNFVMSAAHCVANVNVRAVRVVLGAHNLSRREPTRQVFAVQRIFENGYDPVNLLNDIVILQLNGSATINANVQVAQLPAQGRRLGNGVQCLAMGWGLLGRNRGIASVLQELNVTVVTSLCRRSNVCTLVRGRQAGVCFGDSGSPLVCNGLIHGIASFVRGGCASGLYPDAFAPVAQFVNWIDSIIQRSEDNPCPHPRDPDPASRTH
- Test summary: In vitro inhibition of HNE using a fluorogenic peptide substrate (continuous read-out signal, 384 MTP assay format)
- Test context: substrate MeOSuc-Ala-Ala-Pro-Val-AMC, 37° C.
Lab note - cut at 40 nM for IC50: T if strictly below, F if not.

# Compound, Classification
data = [
    ("CCOC(=O)C1=C(C)N(c2cccc(C(F)(F)F)c2)C(=O)NC1c1cccc([N+](=O)[O-])c1 (stereo not shown)", "F"),
    ("CCOC(=O)C1=C(C)N(c2cccc(C(F)(F)F)c2)C(=O)N(C)C1c1ccc(C#N)cc1 (stereo not shown)", "T"),
    ("CC1=C(C(=O)N(C)C)C(c2ccc(C#N)cc2)NC(=O)N1c1cccc(C(F)(F)F)c1 (stereo not shown)", "F"),
    ("CC1=C(C(=O)OCCc2ccncc2)C(c2ccc(C#N)cc2)NC(=O)N1c1cccc(C(F)(F)F)c1 (stereo not shown)", "F"),
    ("CCOC(=O)C1=C(C)N(c2cccc(C(F)(F)F)c2)C(=O)N(CC(=O)N2CCN(C)CC2)C1c1ccc(C#N)cc1 (stereo not shown)", "T"),
]

query: Would you kindly verify if IC50 of CCOC(=O)C1=C(C)N(c2cccc(C(F)(F)F)c2)C(=O)NC1c1ccc(C#N)nc1 (stereo not shown) is strictly less than 40 nM?
result: T

----------
- Subject of test: human neutrophil elastase (HNE) (Homo sapiens)
- Test summary: In vitro inhibition of HNE using a fluorogenic peptide substrate (continuous read-out signal, 384 MTP assay format)
- Test context: substrate MeOSuc-Ala-Ala-Pro-Val-AMC, 37° C.
- Method: I. In vitro Enzyme Assays of Human Neutrophil Elastase (HNE) assay buffer: 0.1 M HEPES-NaOH buffer pH 7.4, 0.5 M NaCl, 0.1% (w/v) bovine serum albumin; suitable concentration (see below) of substrate in assay buffer; suitable concentration of test compounds diluted with assay buffer from a 10 mM stock solution in DMSO. […]
Listing of recorded IC50 by entry.
Expressed in nM, but write only the number.

Known results for compounds:
# Compound, IC50 [nM]
data = [
    ("CCOC(=O)C1=C(C)N(c2cccc(C(F)(F)F)c2)C(=O)NC1c1ccc([N+](=O)[O-])cc1 (stereo not shown) [Example 110]", 50),
    ("CCOC(=O)C1=C(C)N(c2cccc(C(F)(F)F)c2)C(=O)N(C(C)=O)C1c1ccc(C#N)cc1 (stereo not shown) [Example 15]", 8),
    ("CCOC(=O)C1=C(CN(CC)CC)N(c2cccc(C(F)(F)F)c2)C(=O)NC1c1ccc(C#N)cc1 (stereo not shown) [Example 20]", 700),
]

# evaluate next
query: I have this compound here, CCOC(=O)C1=C(C)N(c2cccc(C(F)(F)F)c2)C(=O)N(C(=O)OCC)C1c1ccc(C#N)cc1 (stereo not shown) [Example 16] , and I need its recorded IC50.
result: 10

----------
- Test system: human polymorphonuclear cells (PMNs)
- Test summary: In vitro PMN elastolysis assay (tritiated elastin)
- Assay type: cell-based
- Test context: mean±s.e.m.; n=2 different donors at 3.6×10^5 cells per well
Readout name: IC50 (nM)
Expressed in nM, but write only the number.

query: I have this compound here, COc1ccc(C(=O)N[C@H](C(=O)N2CCC[C@H]2C(=O)N[C@H](C(=O)C(F)(F)F)C(C)C)C(C)C)cc1 [ZD-0892] , and I need its recorded IC50.
result: 45.5

These entries and their values trace back to patent US7687510B2.
